List of Fik Kinase %Inhibition values.
target: FLK-1 receptor (Mus musculus); construct: expressed in transfected cells; host or cells: NIH3T3 C7#3; assay: FLK-1 ELISA (kinase activity of the FLK-1 receptor in FLK-1/NIH3T3 cells, VEGF stimulated); format: cell-based
Sequence (P35918 20-1345): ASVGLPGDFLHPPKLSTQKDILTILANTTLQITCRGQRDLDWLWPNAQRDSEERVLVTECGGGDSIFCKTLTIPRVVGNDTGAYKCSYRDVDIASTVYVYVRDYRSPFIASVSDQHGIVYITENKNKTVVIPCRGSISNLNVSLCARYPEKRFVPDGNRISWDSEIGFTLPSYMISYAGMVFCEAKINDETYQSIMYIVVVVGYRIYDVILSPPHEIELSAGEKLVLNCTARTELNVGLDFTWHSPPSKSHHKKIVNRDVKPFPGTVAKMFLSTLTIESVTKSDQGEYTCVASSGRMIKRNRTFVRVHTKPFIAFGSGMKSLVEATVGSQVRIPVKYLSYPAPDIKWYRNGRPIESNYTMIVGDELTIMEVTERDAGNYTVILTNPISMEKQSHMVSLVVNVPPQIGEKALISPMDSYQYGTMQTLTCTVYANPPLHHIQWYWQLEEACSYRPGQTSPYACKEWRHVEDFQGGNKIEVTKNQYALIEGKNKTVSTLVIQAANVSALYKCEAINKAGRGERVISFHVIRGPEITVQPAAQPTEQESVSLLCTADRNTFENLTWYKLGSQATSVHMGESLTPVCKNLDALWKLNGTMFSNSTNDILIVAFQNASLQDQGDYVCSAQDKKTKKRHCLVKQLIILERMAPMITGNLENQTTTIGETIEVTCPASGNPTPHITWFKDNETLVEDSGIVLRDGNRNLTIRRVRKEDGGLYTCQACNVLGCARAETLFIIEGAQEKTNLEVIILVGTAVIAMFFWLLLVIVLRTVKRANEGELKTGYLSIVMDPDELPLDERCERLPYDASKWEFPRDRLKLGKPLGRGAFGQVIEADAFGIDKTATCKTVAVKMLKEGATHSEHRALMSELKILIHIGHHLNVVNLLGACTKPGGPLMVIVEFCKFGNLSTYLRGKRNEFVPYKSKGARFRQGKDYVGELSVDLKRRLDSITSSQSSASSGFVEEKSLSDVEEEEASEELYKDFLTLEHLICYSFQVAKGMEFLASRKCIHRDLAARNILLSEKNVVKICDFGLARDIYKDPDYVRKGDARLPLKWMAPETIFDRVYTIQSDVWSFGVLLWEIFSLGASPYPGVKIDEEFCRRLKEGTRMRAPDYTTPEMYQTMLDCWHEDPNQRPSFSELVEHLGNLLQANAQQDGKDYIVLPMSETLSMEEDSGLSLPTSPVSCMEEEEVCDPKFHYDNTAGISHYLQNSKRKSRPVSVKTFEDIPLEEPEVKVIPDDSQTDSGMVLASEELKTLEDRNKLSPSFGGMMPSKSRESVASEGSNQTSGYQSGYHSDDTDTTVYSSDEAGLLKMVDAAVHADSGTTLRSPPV
Result Type: Fik Kinase %Inhibition (%)

[
  {
    "Smiles Record": "COc1cc(C=C2C(=O)Nc3ccc(S(=O)(=O)Nc4ccc(C(F)(F)F)cc4)cc32)cc(OC)c1OC",
    "Reading": 22.1
  },
  {
    "Smiles Record": "O=C1Nc2ccc(S(=O)(=O)N3CCOCC3)cc2C1=Cc1cc(Br)cc(Br)c1O",
    "Reading": 6.6
  },
  {
    "Smiles Record": "O=C(O)COc1ccccc1C=C1C(=O)Nc2ccc(I)cc21",
    "Reading": 3.9
  },
  {
    "Smiles Record": "O=C1Nc2c(Br)cc(Br)cc2C1=Cc1ccc(N2CCOCC2)cc1",
    "Reading": -2.9
  },
  {
    "Smiles Record": "CCN(CC)c1ccc(C=C2C(=O)Nc3ccc(Br)c(C)c32)cc1",
    "Reading": -2.0
  },
  {
    "Smiles Record": "O=C1Nc2c(Br)cc(Br)cc2C1=Cc1csc([N+](=O)[O-])c1",
    "Reading": 7.3
  },
  {
    "Smiles Record": "CNS(=O)(=O)c1ccc2c(c1)C(=Cc1ccc([N+](=O)[O-])c(O)c1)C(=O)N2",
    "Reading": 0.5
  },
  {
    "Smiles Record": "O=C1Nc2ccc(I)cc2C1=Cc1cc2ccccc2nc1Cl",
    "Reading": 4.4
  },
  {
    "Smiles Record": "CN(C)c1ccc(C=C2C(=O)Nc3c(Br)cc(Br)cc32)c2ccccc12",
    "Reading": 1.8
  },
  {
    "Smiles Record": "CNS(=O)(=O)c1ccc2c(c1)C(=Cc1cc(OC)ccc1O)C(=O)N2",
    "Reading": -6.6
  },
  {
    "Smiles Record": "CC(C)(C)c1cc(C=C2C(=O)Nc3ccc(CCCl)cc32)cc(C(C)(C)C)c1OCc1ccccc1",
    "Reading": 19.2
  },
  {
    "Smiles Record": "CNS(=O)(=O)c1ccc2c(c1)C(=Cc1ccc(F)cc1)C(=O)N2",
    "Reading": -3.8
  },
  {
    "Smiles Record": "O=C1Nc2ccc(S(=O)(=O)Nc3ccc(C(F)(F)F)cc3)cc2C1=Cc1ccc[nH]1",
    "Reading": -1.1
  },
  {
    "Smiles Record": "Cc1ccc(C=C2C(=O)Nc3ccc(Br)c(C)c32)o1",
    "Reading": -27.3
  },
  {
    "Smiles Record": "CNS(=O)(=O)c1ccc2c(c1)C(=Cc1cc(Cl)cc(Br)c1O)C(=O)N2",
    "Reading": 25.9
  },
  {
    "Smiles Record": "O=C1Nc2c(Br)cc(Br)cc2C1=Cc1cccc(C(F)(F)F)c1F",
    "Reading": -21.6
  },
  {
    "Smiles Record": "CC(C)(C)c1ccc(C=C2C(=O)Nc3ccc(S(=O)(=O)N4CCOCC4)cc32)cc1",
    "Reading": 14.8
  },
  {
    "Smiles Record": "Cc1cc(C=C2C(=O)Nc3ccc(CCCl)cc32)cc(C)c1O",
    "Reading": 8.0
  }
]

* * *

target: PDGF-R (Homo sapiens, UniProt P09619); test: PDGF-R ELISA; assay type: cell-based
Sequence (P09619 33-1106, species assumed): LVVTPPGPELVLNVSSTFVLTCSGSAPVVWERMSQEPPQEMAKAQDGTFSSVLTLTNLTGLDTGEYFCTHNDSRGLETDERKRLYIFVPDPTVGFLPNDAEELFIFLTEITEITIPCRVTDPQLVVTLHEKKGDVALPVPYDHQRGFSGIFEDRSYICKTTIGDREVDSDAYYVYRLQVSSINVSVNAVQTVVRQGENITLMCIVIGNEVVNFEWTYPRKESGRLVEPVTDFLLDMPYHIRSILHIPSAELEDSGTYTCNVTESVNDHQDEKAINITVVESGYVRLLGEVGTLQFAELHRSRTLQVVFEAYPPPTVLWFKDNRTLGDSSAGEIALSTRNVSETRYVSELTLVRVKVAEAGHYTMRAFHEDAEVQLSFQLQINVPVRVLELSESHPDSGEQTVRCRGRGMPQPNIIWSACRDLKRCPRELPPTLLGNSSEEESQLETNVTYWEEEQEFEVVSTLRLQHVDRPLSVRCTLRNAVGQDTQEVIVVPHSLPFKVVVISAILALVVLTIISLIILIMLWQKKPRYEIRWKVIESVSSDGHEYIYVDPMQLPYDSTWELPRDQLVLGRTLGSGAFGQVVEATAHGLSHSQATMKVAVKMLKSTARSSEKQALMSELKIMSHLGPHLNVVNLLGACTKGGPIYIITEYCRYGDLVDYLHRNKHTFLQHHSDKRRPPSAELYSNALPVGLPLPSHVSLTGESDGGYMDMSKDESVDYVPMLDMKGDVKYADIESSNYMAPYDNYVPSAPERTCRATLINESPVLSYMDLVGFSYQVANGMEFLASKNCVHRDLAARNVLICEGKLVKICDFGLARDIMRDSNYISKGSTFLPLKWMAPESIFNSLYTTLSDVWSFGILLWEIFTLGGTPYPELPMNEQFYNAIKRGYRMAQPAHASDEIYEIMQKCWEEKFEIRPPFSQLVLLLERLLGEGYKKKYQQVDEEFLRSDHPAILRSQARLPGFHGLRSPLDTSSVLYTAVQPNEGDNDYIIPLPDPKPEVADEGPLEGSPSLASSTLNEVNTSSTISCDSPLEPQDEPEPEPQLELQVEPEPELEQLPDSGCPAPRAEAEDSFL
Result Type: PDGF Kinase %Inhibition (%)

[
  {
    "Molecule": "CC(C)(C)c1ccc(C=C2C(=O)Nc3ccc(S(=O)(=O)N4CCOCC4)cc32)cc1",
    "Assayed Target": "PDGF-R (Homo sapiens, UniProt P09619)",
    "Reading": 25.8
  },
  {
    "Molecule": "O=C1Nc2ccc(CCCl)cc2C1=Cc1cc(Cl)ccc1O",
    "Assayed Target": "PDGF-R (Homo sapiens, UniProt P09619)",
    "Reading": 16.1
  },
  {
    "Molecule": "Cc1cn(C)cc1C=C1C(=O)Nc2ccc(Br)c(C)c21",
    "Assayed Target": "PDGF-R (Homo sapiens, UniProt P09619)",
    "Reading": 36.0
  },
  {
    "Molecule": "CC(C)(C)c1ccc(C=C2C(=O)Nc3ccc(CCCl)cc32)cc1",
    "Assayed Target": "PDGF-R (Homo sapiens, UniProt P09619)",
    "Reading": 9.9
  },
  {
    "Molecule": "CNS(=O)(=O)c1ccc2c(c1)C(=Cc1ccc(C(=O)O)cc1)C(=O)N2",
    "Assayed Target": "PDGF-R (Homo sapiens, UniProt P09619)",
    "Reading": 22.0
  },
  {
    "Molecule": "CCn1c2ccccc2c2cc(C=C3C(=O)Nc4c(Br)cc(Br)cc43)ccc21",
    "Assayed Target": "PDGF-R (Homo sapiens, UniProt P09619)",
    "Reading": -3.9
  },
  {
    "Molecule": "CCc1ccc(C=C2C(=O)Nc3ccc(S(=O)(=O)Nc4ccc(C(F)(F)F)cc4)cc32)o1",
    "Assayed Target": "PDGF-R (Homo sapiens, UniProt P09619)",
    "Reading": 34.9
  },
  {
    "Molecule": "CC(C)c1cc(C=C2C(=O)Nc3ccc(I)cc32)cc(C(C)C)c1O",
    "Assayed Target": "PDGF-R (Homo sapiens, UniProt P09619)",
    "Reading": 43.2
  },
  {
    "Molecule": "CN1C(=O)C(=C2C(=O)Nc3ccc(CCCl)cc32)c2ccccc21",
    "Assayed Target": "PDGF-R (Homo sapiens, UniProt P09619)",
    "Reading": 5.6
  },
  {
    "Molecule": "Cc1c(Br)ccc2c1C(=Cc1cc3c(cc1Cl)OCO3)C(=O)N2",
    "Assayed Target": "PDGF-R (Homo sapiens, UniProt P09619)",
    "Reading": 12.3
  },
  {
    "Molecule": "C=C(C)C1CC=C(C=C2C(=O)Nc3ccc(I)cc32)CC1 (stereo not shown)",
    "Assayed Target": "PDGF-R (Homo sapiens, UniProt P09619)",
    "Reading": 0.3
  },
  {
    "Molecule": "O=C1Nc2c(Br)cc(Br)cc2C1=Cc1cc2ccccc2nc1Cl",
    "Assayed Target": "PDGF-R (Homo sapiens, UniProt P09619)",
    "Reading": -6.0
  },
  {
    "Molecule": "Cc1c(Br)ccc2c1C(=Cc1c[nH]cn1)C(=O)N2",
    "Assayed Target": "PDGF-R (Homo sapiens, UniProt P09619)",
    "Reading": 80.7
  },
  {
    "Molecule": "Cc1c(Br)ccc2c1C(=Cc1ccncc1)C(=O)N2",
    "Assayed Target": "PDGF-R (Homo sapiens, UniProt P09619)",
    "Reading": -34.8
  },
  {
    "Molecule": "O=C1Nc2c(Br)cc(Br)cc2C1=Cc1cc(Cl)cc(Br)c1O",
    "Assayed Target": "PDGF-R (Homo sapiens, UniProt P09619)",
    "Reading": 12.3
  },
  {
    "Molecule": "Cc1c(Br)ccc2c1C(=Cc1cccc(Br)c1)C(=O)N2",
    "Assayed Target": "PDGF-R (Homo sapiens, UniProt P09619)",
    "Reading": 25.6
  },
  {
    "Molecule": "CNS(=O)(=O)c1ccc2c(c1)C(=Cc1ccc(C(C)(C)C)cc1)C(=O)N2",
    "Assayed Target": "PDGF-R (Homo sapiens, UniProt P09619)",
    "Reading": 9.9
  },
  {
    "Molecule": "O=C1Nc2ccc(CCCl)cc2C1=Cc1coc2ccc([N+](=O)[O-])cc2c1=O",
    "Assayed Target": "PDGF-R (Homo sapiens, UniProt P09619)",
    "Reading": 40.8
  },
  {
    "Molecule": "O=C1Nc2c(Br)cc(Br)cc2C1=Cc1ccc([N+](=O)[O-])cc1",
    "Assayed Target": "PDGF-R (Homo sapiens, UniProt P09619)",
    "Reading": -9.9
  }
]

* * *

molecular target: PDGF-R (Homo sapiens); experiment: PDGF-R ELISA; type: cell-based
Given measured PDGF Kinase %Inhibition, output 1.0 if it is greater than or equal to 20% and 0.0 if not.

[
  {
    "Smiles Record": "Cc1ccc(C=C2C(=O)Nc3ccc(S(=O)(=O)N4CCOCC4)cc32)o1",
    "Assayed Target": "PDGF-R (Homo sapiens)",
    "Label Class": 0.0
  },
  {
    "Smiles Record": "CCc1ccc(C=C2C(=O)Nc3ccc(S(=O)(=O)NC)cc32)s1",
    "Assayed Target": "PDGF-R (Homo sapiens)",
    "Label Class": 1.0
  },
  {
    "Smiles Record": "O=C1Nc2ccc(CCCl)cc2C1=Cc1cccn1-c1ccc(Cl)cc1",
    "Assayed Target": "PDGF-R (Homo sapiens)",
    "Label Class": 0.0
  },
  {
    "Smiles Record": "COc1cc(C=C2C(=O)Nc3c(Br)cc(Br)cc32)cc2c1OCO2",
    "Assayed Target": "PDGF-R (Homo sapiens)",
    "Label Class": 0.0
  },
  {
    "Smiles Record": "Cc1c(Br)ccc2c1C(=Cc1coc3c(Br)cc(Br)cc3c1=O)C(=O)N2",
    "Assayed Target": "PDGF-R (Homo sapiens)",
    "Label Class": 0.0
  },
  {
    "Smiles Record": "Cc1cc(C=C2C(=O)Nc3ccc(S(=O)(=O)Nc4ccc(C(F)(F)F)cc4)cc32)cc(C)c1O",
    "Assayed Target": "PDGF-R (Homo sapiens)",
    "Label Class": 1.0
  },
  {
    "Smiles Record": "O=C1Nc2c(Br)cc(Br)cc2C1=Cc1cccc(C(F)(F)F)c1F",
    "Assayed Target": "PDGF-R (Homo sapiens)",
    "Label Class": 1.0
  },
  {
    "Smiles Record": "CC(C)(C)c1cc(C=C2C(=O)Nc3ccc(S(=O)(=O)Nc4ccc(C(F)(F)F)cc4)cc32)ccc1OCc1ccccc1",
    "Assayed Target": "PDGF-R (Homo sapiens)",
    "Label Class": 0.0
  }
]

Where these numbers come from: patent EP1247803A2
